tested on: rodent lifetime carcinogenesis bioassay, tumor incidence TD50; assay: carcinogenic potency in animals, long-term in vivo studies, CPDB compilation (AID 1745844); conditions: hamster; strain Syrian Golden; females; by gavage; site: liver; lesion: hepatocellular carcinoma/adenoma; dosed 50 weeks; study length 65 weeks
Value Kind: TD50

> print(dat)
   substance.smiles          result
1    O=NC(=O)CCNCCO  3.72 mg/kg/day

* * *

test system: rodent lifetime carcinogenesis bioassay, tumor incidence TD50; assay: carcinogenic potency in animals, long-term in vivo studies, CPDB compilation (AID 1745844); conditions: rat; strain Fischer 344; females; in drinking water; site: uterus; lesion: polyp; dosed 104 weeks; study length 128 weeks
Value Kind: TD50 (mg/kg/day)

> print(dat)
   substance.smiles  numeric.readout
1              O=NO              218
